Listing of entries alongside the reported Tumor volume, Day 25.
# Test system: HCT-116 colon cancer xenografts
# measurement-protocol: Tumor growth inhibition of HCT-116 colon cancer xenografts in tumor-bearing nude mice (tumor volume, TGI %, RTV, T/C %)
# Format: in vivo, Balb/c Nude mice
# protocol-conditions: Day 25; G10-G16 groups; single IP 400 mg/kg; Mean±SEM
Unit mm^3 implied. Number only.

Quote Tumor volume, Day 25 reported for O=C(COc1nc(Cl)c(Cl)cc1Cl)OC[C@H]1O[C@@H](n2cc(Br)c(NC(=O)OCc3ccccc3)nc2=O)C(F)(F)C1O (stereo partly drawn) [Compound G10] please.
2293.73

Quote Tumor volume, Day 25 reported for CCCCOC(=O)Nc1nc(=O)n(C2OC(COC(=O)COc3nc(Cl)c(Cl)cc3Cl)C(O)C2(F)F)cc1-c1cn(Cc2ccccc2)nn1 (stereo not drawn) [Compound G15] please.
1086.50

Quote Tumor volume, Day 25 reported for CCCCOC(=O)Nc1nc(=O)n(C2OC(COC(=O)COc3nc(Cl)c(Cl)cc3Cl)C(O)C2(F)F)cc1Br (stereo not drawn) [Compound G16] please.
2110.15

Quote Tumor volume, Day 25 reported for O=C(COc1nc(Cl)c(Cl)cc1Cl)OCC1OC(n2cc(-c3cn(Cc4ccccc4)nn3)c(NC(=O)OCc3ccc([N+](=O)[O-])cc3)nc2=O)C(F)(F)C1O (stereo not drawn) [Compound G13] please.
1580.18

Quote Tumor volume, Day 25 reported for CCCCOC(=O)Nc1nc(=O)n([C@@H]2O[C@H](COC(=O)Cn3cnc([N+](=O)[O-])c3)C(O)C2(F)F)cc1I (stereo partly drawn) [Compound G12] please.
2136.52

Quote Tumor volume, Day 25 reported for CCCCOC(=O)Nc1nc(=O)n(C2OC(COC(=O)COc3nc(Cl)c(Cl)cc3Cl)C(O)C2(F)F)cc1I (stereo not drawn) [Compound G11] please.
1851.89

Sourced from patent US10174067B2
